Tested on: RPMI-8226
Details: read-out: 50% lethal concentration (LC50); RPMI-8226, Leukemia
quantity_name: CC50

Ask: Annotate the molecule C=C1CCC2C3(C)COC(c4cn(-c5ccccc5)nc4-c4ccc(C)cc4)OC3CCC2(C)C1CC=C1C(=O)OCC1O (stereo not drawn) [1i] with its measured CC50.
Reply: > 100 µM

Ask: Annotate the molecule C=C1CCC2C3(C)COC(c4cn(-c5ccccc5)nc4-c4cccc(Br)c4)OC3CCC2(C)C1CC=C1C(=O)OCC1O (stereo not drawn) [1e] with its measured CC50.
Reply: > 100 µM

Ask: Annotate the molecule C=C1CCC2C3(C)COC(c4cn(-c5ccccc5)nc4-c4ccc(OC)cc4)OC3CCC2(C)C1CC=C1C(=O)OCC1O (stereo not drawn) [1j] with its measured CC50.
Reply: > 100 µM
